System: HIV-1
Assay: microbe, parasite or virus in culture
Type: cell-based, HIV-1 (H9IIIB or NL4-3 virus)
Conditions: read-out: WILD TYPE CELL ASSAY Viking IP (0% NHS)
assay_metric: IC50 (nM)
Give the number; nM is assumed, so skip it.

Return reported IC50; argument: CCNC1CC2CN(CCOC)C(=O)c3c(O)c(=O)c(C(=O)NCc4ccc(F)cc4F)c1n32 (single isomer, unassigned) [Compound 66]
12

Please answer likewise for CCN1C[C@H]2CC(N3CCCC3)c3c(C(=O)NCc4ccc(F)cc4F)c(=O)c(O)c(n32)C1=O (single isomer, unassigned) [Compound 36]
6

Please answer likewise for CCN1C[C@H]2C[C@H](NS(C)(=O)=O)c3c(C(=O)NCc4ccc(F)cc4F)c(=O)c(O)c(n32)C1=O [Compound 45]
7

Please answer likewise for CCNC1CC2CN(CCOC)C(=O)c3c(O)c(=O)c(C(=O)NCc4ccc(F)cc4F)c1n32 (single isomer, unassigned) [Compound 67]
7

---

System: HIV-1
Test: microbe, parasite or virus in culture
Format: cell-based, HIV-1 (H9IIIB or NL4-3 virus)
Settings: Human immunodeficiency virus 1, read-out: WILD TYPE CELL ASSAY Viking IP (100% NHS) (nM)
assay_metric: IC50 (nM)
Give the number; nM is assumed, so skip it.

Reported IC50 for HIV-1, given CCN1C[C@@H]2C[C@@H](N(C)C)c3c(C(=O)NCc4ccc(F)cc4)c(=O)c(O)c(n32)C1=O ?
22

Please answer likewise for CCN1C[C@@H]2C[C@H](NC(C)=O)c3c(C(=O)NCc4ccc(F)cc4F)c(=O)c(O)c(n32)C1=O
135

Please answer likewise for CCCN[C@@H]1C[C@@H]2CN(CC)C(=O)c3c(O)c(=O)c(C(=O)NCc4ccc(F)cc4F)c1n32
34

Please answer likewise for CCN[C@@H]1C[C@@H]2CN(CC)C(=O)c3c(O)c(=O)c(C(=O)NCc4cccc(Cl)c4F)c1n32
28

Please answer likewise for CCN1C[C@H]2C[C@@H](N)c3c(C(=O)NCc4ccc(F)cc4F)c(=O)c(O)c(n32)C1=O
158

Please answer likewise for CCN1C[C@H]2C[C@@H](NCc3ccccc3)c3c(C(=O)NCc4ccc(F)cc4F)c(=O)c(O)c(n32)C1=O
108

Please answer likewise for CCN1C[C@H]2C[C@@H](NC(C)=O)c3c(C(=O)NCc4ccc(F)cc4F)c(=O)c(O)c(n32)C1=O
540

Please answer likewise for CCN1C[C@@H]2C[C@@H](N3CCC3)c3c(C(=O)NCc4cccc(Cl)c4F)c(=O)c(O)c(n32)C1=O
20

Please answer likewise for CCN[C@H]1C[C@@H]2CN(CC)C(=O)c3c(O)c(=O)c(C(=O)NCc4ccc(F)cc4F)c1n32
1100

Please answer likewise for CCN[C@@H]1C[C@@H]2CN(CC)C(=O)c3c(O)c(=O)c(C(=O)NCc4ccc(F)cc4F)c1n32
32

Please answer likewise for CCN1C[C@@H]2C[C@@H](N3CCCC3)c3c(C(=O)NCc4cccc(Cl)c4F)c(=O)c(O)c(n32)C1=O
16
